# Assay Summary: Therapeutic index, ratio of LD50 to ED50 in Swiss albino Mus musculus (mouse)
# Format: organism-based
# Condition Notes: in vivo, read-out: Ratio LD50/ED50
Endpoint Label: selectivity ratio
Simply state the number, no unit and no words.

Would you kindly share the measured selectivity ratio for Cc1nc2c(I)cc(I)cc2c(=O)n1Cc1ccc(Br)cc1 ?
4.09

Would you kindly share the measured selectivity ratio for Cc1nc2c(I)cc(I)cc2c(=O)n1Cc1ccc(Cl)cc1 ?
4

Would you kindly share the measured selectivity ratio for Cc1nc2c(I)cc(I)cc2c(=O)n1Cc1ccc(F)cc1 ?
2.62

====

# Assay Summary: Neurotoxicity in ip dosed Swiss albino Mus musculus (mouse) after 4 hr by rotarod test
# Type: toxicity, organism-based
# Condition Notes: in vivo
Endpoint Label: TD50 at 4 h (mg/kg)
Kindly answer with a numeric value in mg/kg, unit omitted.

Would you kindly share the measured TD50 at 4 h for CCCC(CCC)C(=O)[O-].[Na+] [VALPROATE SODIUM] ?
450

Would you kindly share the measured TD50 at 4 h for Cc1nc2c(I)cc(I)cc2c(=O)n1Cc1ccc(F)cc1 ?
360

Would you kindly share the measured TD50 at 4 h for Cc1nc2c(I)cc(I)cc2c(=O)n1Cc1ccc(Br)cc1 ?
330

Would you kindly share the measured TD50 at 4 h for Cc1nc2c(I)cc(I)cc2c(=O)n1Cc1ccc(Cl)cc1 ?
280

Would you kindly share the measured TD50 at 4 h for Cc1ccccc1-n1c(C)nc2ccccc2c1=O [METHAQUALONE] ?
400
